test system: Lefty1; assay: Lefty1 protein binding to printed compounds – biochemical, small-molecule microarray, 635/667 nm fluorescence, primary screen (AID 1139); conditions: fluorescence 635/667, higher = more signal
Label label 1 for high-side composite z-score (at or above 0.8) and label 0 for low-side composite z-score (below it).

Solved entries (count: 5):
compound smiles: O=C1O[C@@H](c2ccccc2)[C@@H](c2ccccc2)N2[C@@H](c3ccc(OCCO)cc3)[C@]3(C(=O)Nc4ccc(C#CCCO)cc43)[C@@H](C(=O)O)[C@H]12
assigned category: label 0
//
compound smiles: COc1ccc([Si](C)(C)[C@@H]2[C@@H](CC(=O)N3Cc4ccccc4C[C@H]3CO)O[C@]3(C(=O)N(Cc4ccc(N5CCOC5=O)cc4)c4ccccc43)[C@H]2C)cc1
assigned category: label 1
//
compound smiles: CC(C)C(=C=CC[C@H](O)c1ccccc1OCCO)C[C@H](O)COCc1ccccc1
assigned category: label 0
//
compound smiles: CN(C)CCCC[C@@H]1NC(=O)[C@@H]2C[C@H](C(=O)NCCCCCCNC(=O)CS)[C@H](c3ccc(O)cc3)N2C1=O
assigned category: label 1
//
compound smiles: O=C(NCc1ccccc1)[C@@H]1c2ccccc2C(=O)N(Cc2ccc(OC(F)(F)F)cc2)[C@H]1c1ccc(CO)cc1
assigned category: label 0

Proceed to the following item.
Q: Check this compound for composite z-score at or above 0.8: C=CC[C@@]12N=C(c3ccc(OCCCO)cc3)O[C@@H]1c1ccccc1N(CCC)C2=O
A: label 1

----------
Listed below: z-score values for each entry.
experiment: growth of efflux-deficient E. coli DRC39 – strain DRC39, OD650, 24 h, E. coli filamentation inducers, primary screen (AID 1178);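 further: growth measured as culture turbidity by optical density at 650 nm; test concentration not given here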; conditions: E. coli DRC39 acrAB, higher = more signal, called active from +8 up or from −8 down
Active and inactive are the calls of the source.

molecule: NC(=O)NCC#Cc1ccc2c(c1)[C@]1(C(=O)N2)[C@H](c2ccc(OCCO)cc2)N2[C@H](c3ccccc3)[C@H](c3ccccc3)OC(=O)[C@H]2[C@@H]1C(=O)O
readout name: z-score
result: 0.427 (inactive)
//
molecule: O=C1C2C=CC(C(O)c3c(F)cccc3Cl)N(Nc3ccc([N+](=O)[O-])cc3)C2C(=O)N1c1ccccc1 (centres undefined)
readout name: z-score
result: -0.333 (inactive)
//
molecule: CC(C)(C)N1CC=CC23O[C@@H]4C=CCOC(=O)[C@@H]4[C@H]2C(=O)N(CCO)[C@@H]3C1=O (some centres undefined)
readout name: z-score
result: 0.0531 (inactive)
//
molecule: O=C1c2ccccc2[C@@]2(Cc3ccccc3N(Cc3ccccc3)C2=O)[C@H](c2ccc(CO)cc2)N1Cc1ccccc1Cl
readout name: z-score
result: 0.134 (inactive)
//
molecule: CCOC(=O)C[C@H]1[C@H](OC(=O)Cc2ccc3c(c2)OCO3)[C@@H](NC(=O)Cc2ccc(OC)cc2)c2cc(OCCCO)ccc2N1C(=O)Cc1ccc(OC)cc1
readout name: z-score
result: 1.44 (inactive)
//
molecule: CN(C)C(=O)[C@]1(Cc2ccccc2)N=C(c2ccc(OCCCO)cc2)O[C@@H]1c1ccccc1CN=[N+]=[N-]
readout name: z-score
result: -0.348 (inactive)
//
molecule: CN(C)CCCCNC(=O)[C@H]1C[C@H]2C(=O)NCC(=O)N2[C@H]1c1ccc(O)cc1
readout name: z-score
result: 0.0662 (inactive)
//
molecule: C=C(/C(=C/C[C@@H](OC(C)=O)c1cccc(OCCO)c1)c1cnc2ccccc2c1)C(C)C
readout name: z-score
result: 0.12 (inactive)

Q: Given the molecule COc1ccc([Si](C)(C)[C@@H]2[C@@H](CC(=O)N3Cc4ccccc4C[C@H]3CO)O[C@]3(C(=O)N(Cc4cccc(N5CCOC5=O)c4)c4ccccc43)[C@H]2C)cc1 , what is its reported z-score?
A: -0.742 (inactive)

Q: Given the molecule Cc1ccccc1C(O)C1C=CC2C(=O)N(c3ccccc3)C(=O)C2N1Nc1ccccc1 (centres undefined) , what is its reported z-score?
A: -0.36 (inactive)

Q: Given the molecule CCCN1C(=O)[C@]2(CCC(=O)OC(C)(C)C)N=C(c3ccc(OCCCO)cc3)O[C@@H]2c2ccccc21 , what is its reported z-score?
A: 1.08 (inactive)

Q: Given the molecule COCCOC(=O)N1C(=O)[C@@]2(c3cc(C#CCCO)ccc31)[C@H](c1ccccc1OCCO)N1[C@H](c3ccccc3)[C@H](c3ccccc3)OC(=O)[C@H]1[C@@H]2C(N)=O , what is its reported z-score?
A: 0.641 (inactive)

Q: Given the molecule CCCNC(=O)[C@@]1(c2ccc([N+](=O)[O-])cc2)CC(=O)N(C(C)C)[C@@H]1c1ccc(CO)cc1 , what is its reported z-score?
A: 0.388 (inactive)

Q: Given the molecule CN(C)CCCC[C@@H]1NC(=O)[C@@H]2C[C@H](C(=O)NCCCCCN)[C@H](c3cccc(OCCO)c3)N2C1=O , what is its reported z-score?
A: 2.01 (inactive)

Q: Given the molecule COC(=O)c1cccc([C@H]2OC(=CC(=O)OC(C)C)C[C@@H](c3cccc(C(=O)OC)c3)O2)c1 , what is its reported z-score?
A: -0.435 (inactive)

Q: Given the molecule COc1ccc([Si](C)(C)[C@@H]2[C@@H](CC(=O)N3CCC[C@H]3CO)O[C@]3(C(=O)N(Cc4ccc(N5CCOC5=O)cc4)c4ccccc43)[C@H]2C)cc1 , what is its reported z-score?
A: 0.0669 (inactive)

Q: Given the molecule C=CCOC(=O)[C@@H]1[C@H]2C(=O)O[C@H](c3ccccc3)[C@H](c3ccccc3)N2[C@H](c2ccc(OCCOC(=O)[C@H]3C[C@H]4C(=O)N[C@@H](CCCCN(C)C)C(=O)N4[C@H]3c3ccc(O)cc3)cc2)[C@@]12C(=O)Nc1ccc(I)cc12 , what is its reported z-score?
A: -0.466 (inactive)

Q: Given the molecule O=C(NC1CC1)[C@@H]1c2ccccc2C(=O)N(Cc2cc(C(F)(F)F)cc(C(F)(F)F)c2)[C@H]1c1ccc(CO)cc1 , what is its reported z-score?
A: 0.655 (inactive)

Q: Given the molecule CN(C)CCCNC(=O)[C@@H]1c2ccccc2C(=O)N(Cc2ccccc2C(F)(F)F)[C@H]1c1ccc(CO)cc1 , what is its reported z-score?
A: 0.858 (inactive)

Q: Given the molecule O=C1NC(=O)C2C1C=CC(C(O)c1ccc(B(O)O)cc1)N2Nc1ccc(Cl)cc1Cl (centres undefined) , what is its reported z-score?
A: 0.0436 (inactive)

Q: Given the molecule Cc1ccc(S[C@]2(C(=O)NCCCN(C)C)CC(=O)N(Cc3ccccc3C(F)(F)F)[C@@H]2c2ccc(CO)cc2I)cc1 , what is its reported z-score?
A: -0.108 (inactive)

Q: Given the molecule COc1ccc(C(O)C2C=CC3C(=O)NC(=O)C3N2Nc2ccc(Cl)cc2Cl)c2ccccc12 (centres undefined) , what is its reported z-score?
A: -0.0977 (inactive)

Q: Given the molecule C=C(CCCC)/C(=C/C[C@H](OC(=O)c1ccncc1)c1cccc(OCCO)c1)c1cnc2ccccc2c1 , what is its reported z-score?
A: -0.566 (inactive)

Q: Given the molecule CC1CC/C=C\[C@H]2OC34C=CCN(c5ccc(Cl)cc5)C(=O)[C@H]3N(CCCCCCO)C(=O)[C@]4(C)C2C(=O)O1 (some centres undefined) , what is its reported z-score?
A: 0.251 (inactive)

Q: Given the molecule COC(=O)[C@@]1(Cc2ccccc2)[C@H]2c3cc(C(=O)N(C)C)n(CCO)c3C[C@H]2CN1C(=O)c1ccccc1 , what is its reported z-score?
A: -0.751 (inactive)

Q: Given the molecule O=C1C2C=CC(C(O)c3ccc([N+](=O)[O-])cc3)N(Nc3ccccc3F)C2C(=O)N1c1ccccc1 (centres undefined) , what is its reported z-score?
A: -0.892 (inactive)

Q: Given the molecule CC(C)=CCCC(C)=CC(O)C1C=CC2C(=O)NC(=O)C2N1Nc1ccccn1 (centres undefined) , what is its reported z-score?
A: -0.222 (inactive)

Q: Given the molecule [N-]=[N+]=Nc1ccccc1C[C@@]1(C(=O)NCC(O)CO)N=C(c2ccc(OCCCO)cc2)O[C@@H]1c1ccccc1 (some centres undefined) , what is its reported z-score?
A: 0.443 (inactive)

Q: Given the molecule CC(=O)OCC1C2CC[C@H]3C(OCc4ccc(F)cc4C(F)(F)F)OC[C@]4(C)[C@H]3C2=C(CN4C(=O)OC(C)(C)C)[C@H](C)C1COC(C)=O (some centres undefined) , what is its reported z-score?
A: -1.47 (inactive)

----------
experiment: resazurin metabolic signal in HepG2 cells – cell-based, resazurin fluorescence, 24 h, PK04 Diversity Set, profiling panel (AID 1172); details: HepG2 viability, higher = more signal; further: test concentration not given here
In plain terms, low z-score, meaning strictly below 0.007, gives criterion met, and everything else gives criterion not met.

compound: O=C1N(Cc2ccccc2)c2ccccc2C[C@@]12COC(c1ccc(OCCCO)cc1)=N2
assigned category: criterion not met
--
compound: O=C1C[C@@](C(=O)O)(c2ccc([N+](=O)[O-])cc2)[C@@H](c2ccc(CO)cc2)N1C1CCCCC1
assigned category: criterion met
--
compound: O=C1c2ccccc2[C@@]2(Cc3ccccc3N(Cc3ccccc3)C2=O)[C@H](c2ccc(CO)cc2)N1Cc1ccccc1Cl
assigned category: criterion not met

Q: For this compound, is z-score lower than 0.007? COC(=O)[C@]1(Cc2ccccc2)N=C(c2ccc(OCCCO)cc2)O[C@@H]1c1ccccc1CN=[N+]=[N-]
A: criterion met

Q: For this compound, is z-score lower than 0.007? COc1cc(C(O)C2C=CC3C(=O)N(c4ccccc4)C(=O)C3N2Nc2ccccc2F)cc(OC)c1OC (configuration not stated)
A: criterion met

Q: For this compound, is z-score lower than 0.007? C=C(CCCC)C(=O)CC[C@@H](OC(=O)c1ccccc1-c1ccccc1C(=O)O)c1ccccc1OCCO
A: criterion met
